// provenance: PubChem BioAssay AID1645866

assay target: Ubiquitin carboxyl-terminal hydrolase 28 (Homo sapiens)
experiment description: Concentration-response biochemical assay confirming initial hits as inhibitors of ubiquitin-specific protease 28 (AID 1645866)
measurement context: purified USP28, ubiquitin-rhodamine fluorescence, 30 min
Activity calls are given as the source filed them.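 How the source made its calls: active means in confirmatory dose-response testing, peak deubiquitinase inhibition of 30% or more; inactive means the rest.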
Outcomes: active, inactive

- compound: "Cc1cn[nH]c1C1COCCN1C(=O)c1ccc2ncccc2c1 (stereo unspecified)"
  class label: "inactive"
- compound: "COc1ccc(CNC(=O)Nc2cccc3ccccc23)cc1"
  class label: "active"
- compound: "COc1ccc(COC(=O)C2=C(C)NC(=O)CC2c2cccc([N+](=O)[O-])c2)cc1 (stereo unspecified)"
  class label: "active"
- compound: "Cc1ccc2c(c1)N=C(c1ccc([N+](=O)[O-])cc1)CO2"
  class label: "inactive"
- compound: "CCC(CC)n1[nH]c(=O)c2c1NC(=O)CSC2c1ccc2c(c1)OCO2 (stereo unspecified)"
  class label: "active"
- compound: "COc1ccc(CCN2COc3c(cc(Cl)c4cccnc34)C2)cc1OC"
  class label: "active"
- compound: "Cc1cccc(C(=O)OCC(=O)Nc2ccc3[nH]c(=O)[nH]c3c2)c1C"
  class label: "active"
- compound: "COc1ccc(C2/C(=C(\\O)c3ccccc3)C(=O)C(=O)N2c2nc3ccc(F)cc3s2)cc1 (stereo unspecified)"
  class label: "active"
- compound: "CC(C)c1cc2c(c(O)c1O)[C@@]13CCCC(C)(C)[C@@H]1C[C@@H]2OC3=O"
  class label: "active"
- compound: "COc1ccc(C(=O)Nc2n[nH]c(C)c2-c2cccc(C)c2)c(OC)c1"
  class label: "active"
- compound: "COc1ccc(NC(=O)c2nnn(-c3cccc(C)c3)c2C)cc1"
  class label: "active"
- compound: "N#C/C(=C/c1sc(N2CCOCC2)nc1-c1ccccc1)c1ccccn1"
  class label: "inactive"
- compound: "O=C(CNC(=O)c1cc2ccccc2o1)Nc1ccc2c(c1)OCCO2"
  class label: "active"
- compound: "Cc1ccc2cc(CCNC(=O)c3cccc(Br)c3)c(=O)[nH]c2c1"
  class label: "active"
- compound: "NS(=O)(=O)c1ccc(CNS(=O)(=O)c2ccc(-c3ccccn3)s2)cc1"
  class label: "active"
- compound: "CC1(C)Cc2c(sc3nc(Cc4ccccc4)nc(SCC(=O)Nc4ccccc4)c23)CO1"
  class label: "active"
- compound: "O=C(c1cc(-c2ccncc2)n[nH]1)N1CCC(C(=O)N2CC=C(c3ccccc3)CC2)CC1"
  class label: "active"
- compound: "COc1ccccc1NC(=O)CSC1=NC2(CCCCC2)Nc2ccccc21"
  class label: "inactive"
- compound: "COc1cc(C#N)c(NC(=NCc2ccc(F)cc2)SC)cc1OC"
  class label: "active"
- compound: "CCn1c(=O)c2ccccc2n(Cc2nc(-c3ccccc3OC)no2)c1=O"
  class label: "inactive"
- compound: "COc1ccc(C)cc1NC(=O)C1CC(=O)Nc2nc(SCc3ccccc3)nn21 (stereo unspecified)"
  class label: "active"
- compound: "COc1cccc(NC(=O)Nc2nccn(-c3ccc(F)cc3)c2=O)c1"
  class label: "active"
- compound: "CCCc1nc2sc3c(NC4CCCCC4)ncnc3c2c2c1CCC2"
  class label: "active"
- compound: "O=C(Cn1c(=O)n(Cc2ccc(F)cc2)c(=O)c2sccc21)Nc1cccc(Cl)c1"
  class label: "active"
- compound: "Cc1nn(C)c2c1[C@@H](c1ccc(F)cc1)[C@H](NC(=O)c1ccccc1)C(=O)N2"
  class label: "active"
- compound: "CC(=O)O[C@H]1[C@]2(O)C[C@]34SS[C@](CO)(C(=O)N3[C@@H]2C[C@@]12O[C@@H](C)C(C)(C)C2=O)N(C)C4=O"
  class label: "inactive"
- compound: "Cc1cccc(NC(=O)c2nn(C)c3ccccc3c2=O)c1"
  class label: "active"
- compound: "Cc1cc(=O)oc2cc(OCC(=O)Nc3cc(Cl)ccc3N3CCOCC3)ccc12"
  class label: "active"
- compound: "Cc1ccc(NC(=O)Cc2nnc3c(-c4nc(C5CC5)no4)cccn23)cc1"
  class label: "active"
- compound: "COc1ccc(NC(=O)c2ccccc2OCC(=O)Nc2ccccc2C(F)(F)F)c(C)c1"
  class label: "active"
- compound: "COc1cccc(NC(=O)C2CCN(C(=O)c3cc(-c4cccnc4)n[nH]3)CC2)c1"
  class label: "active"
- compound: "Cc1ccn(-c2ccc(NC(=O)C3CCCCC3)cc2)n1"
  class label: "active"
- compound: "CCC1=C(c2ccc(C)cc2)S(=O)(=O)NC1=NCC(=O)NC(C)c1ccccc1 (stereo unspecified)"
  class label: "active"
- compound: "O=C(COc1ccc2c(-c3ccccc3)cc(=O)oc2c1)Nc1cccnc1"
  class label: "active"
- compound: "O=C(O)Cc1ccc(Nc2nc3ccccc3n3nnnc23)cc1"
  class label: "inactive"
- compound: "COc1ccc2cc1Oc1cc(ccc1OC)C(O)C13SSC4(C(=O)N1C)C(O)C1=COC=CC(OC2=O)C1N4C3=O (stereo unspecified)"
  class label: "inactive"
- compound: "COc1ccc(C2C(C(=O)C(C)(C)C)N3c4ccccc4C=CC3C23C(=O)c2ccccc2C3=O)c(OC)c1 (stereo unspecified)"
  class label: "inactive"
- compound: "COc1cccc(N2C(=O)N(CC(=O)NCc3ccc(Cl)cc3)c3ccccc3S2(=O)=O)c1"
  class label: "active"
- compound: "C[C@@]12c3ccc4c(c3C(=O)c3occ(c31)C(O)C[C@H]2O)CCC4=O (stereo partly specified)"
  class label: "inactive"
- compound: "O=C(COC(=O)c1ccc2[nH]c3c(c2c1)CCCC3)Nc1ccc2c(c1)OCO2"
  class label: "active"
- compound: "Fc1ccc(Cc2nc(-c3ccc4nncn4c3)no2)cc1"
  class label: "active"
